Experiment: Equilibrium solubility of azithromycin forms in granulating liquids (HPLC-UV)
Conditions: 48 hours, EtOH 67% in water v/v
property: solubility (mgA/mL)

compound	endpointUnit	reported
CCC1OC(=O)C(C)C(O[C@H]2C[C@@](C)(OC)[C@@H](O)C(C)O2)C(C)[C@@H](OC2OC(C)CC(N(C)C)[C@H]2O)[C@@](C)(O)C[C@@H](C)CN(C)[C@H](C)[C@@H](O)[C@]1(C)O (some centres unmarked) [form F]	mgA/mL	27.56
CCC1OC(=O)C(C)C(O[C@H]2C[C@@](C)(OC)[C@@H](O)C(C)O2)C(C)[C@@H](OC2OC(C)CC(N(C)C)[C@H]2O)[C@@](C)(O)C[C@@H](C)CN(C)[C@H](C)[C@@H](O)[C@]1(C)O (some centres unmarked) [form J]	mgA/mL	26.30
CC[C@H]1OC(=O)[C@H](C)[C@@H](O[C@H]2C[C@@](C)(OC)[C@@H](O)[C@H](C)O2)[C@H](C)[C@@H](O[C@@H]2O[C@H](C)C[C@H](N(C)C)[C@H]2O)[C@](C)(O)C[C@@H](C)CN(C)[C@H](C)[C@@H](O)[C@]1(C)O [form N, azithromycin]	mgA/mL	27.20
CC[C@H]1OC(=O)[C@H](C)[C@@H](O[C@H]2C[C@@](C)(OC)[C@@H](O)[C@H](C)O2)[C@H](C)[C@@H](O[C@@H]2O[C@H](C)C[C@H](N(C)C)[C@H]2O)[C@](C)(O)C[C@@H](C)CN(C)[C@H](C)[C@@H](O)[C@]1(C)O [form A, reference compound]	mgA/mL	27.25
CCC1OC(=O)C(C)C(O[C@H]2C[C@@](C)(OC)[C@@H](O)C(C)O2)C(C)[C@@H](OC2OC(C)CC(N(C)C)[C@H]2O)[C@@](C)(O)C[C@@H](C)CN(C)[C@H](C)[C@@H](O)[C@]1(C)O (some centres unmarked) [form M]	mgA/mL	27.00

---

Assay: Equilibrium solubility of azithromycin forms in granulating liquids (HPLC-UV)
Conditions: 24 hours, IPA 33% in water v/v
# if value of solubility reaches 9 mgA/mL, tag Satisfied; if it stays below, tag Not satisfied

compound	discreteLabel
CCC1OC(=O)C(C)C(O[C@H]2C[C@@](C)(OC)[C@@H](O)C(C)O2)C(C)[C@@H](OC2OC(C)CC(N(C)C)[C@H]2O)[C@@](C)(O)C[C@@H](C)CN(C)[C@H](C)[C@@H](O)[C@]1(C)O (some centres unmarked) [form F]	Satisfied
CCC1OC(=O)C(C)C(O[C@H]2C[C@@](C)(OC)[C@@H](O)C(C)O2)C(C)[C@@H](OC2OC(C)CC(N(C)C)[C@H]2O)[C@@](C)(O)C[C@@H](C)CN(C)[C@H](C)[C@@H](O)[C@]1(C)O (some centres unmarked) [form J]	Satisfied
CCC1OC(=O)C(C)C(O[C@H]2C[C@@](C)(OC)[C@@H](O)C(C)O2)C(C)[C@@H](OC2OC(C)CC(N(C)C)[C@H]2O)[C@@](C)(O)C[C@@H](C)CN(C)[C@H](C)[C@@H](O)[C@]1(C)O (some centres unmarked) [form M]	Not satisfied
CC[C@H]1OC(=O)[C@H](C)[C@@H](O[C@H]2C[C@@](C)(OC)[C@@H](O)[C@H](C)O2)[C@H](C)[C@@H](O[C@@H]2O[C@H](C)C[C@H](N(C)C)[C@H]2O)[C@](C)(O)C[C@@H](C)CN(C)[C@H](C)[C@@H](O)[C@]1(C)O [form A, reference compound]	Not satisfied

---

Experiment: Equilibrium solubility of azithromycin forms in granulating liquids (HPLC-UV)
Details: 48 hours, IPA 67% in water v/v
solubility by entry:

compound	endpointUnit	solubility
CC[C@H]1OC(=O)[C@H](C)[C@@H](O[C@H]2C[C@@](C)(OC)[C@@H](O)[C@H](C)O2)[C@H](C)[C@@H](O[C@@H]2O[C@H](C)C[C@H](N(C)C)[C@H]2O)[C@](C)(O)C[C@@H](C)CN(C)[C@H](C)[C@@H](O)[C@]1(C)O [form N, azithromycin]	mgA/mL	106.48
CC[C@H]1OC(=O)[C@H](C)[C@@H](O[C@H]2C[C@@](C)(OC)[C@@H](O)[C@H](C)O2)[C@H](C)[C@@H](O[C@@H]2O[C@H](C)C[C@H](N(C)C)[C@H]2O)[C@](C)(O)C[C@@H](C)CN(C)[C@H](C)[C@@H](O)[C@]1(C)O [form A, reference compound]	mgA/mL	67.70
CCC1OC(=O)C(C)C(O[C@H]2C[C@@](C)(OC)[C@@H](O)C(C)O2)C(C)[C@@H](OC2OC(C)CC(N(C)C)[C@H]2O)[C@@](C)(O)C[C@@H](C)CN(C)[C@H](C)[C@@H](O)[C@]1(C)O (some centres unmarked) [form M]	mgA/mL	82.95
CCC1OC(=O)C(C)C(O[C@H]2C[C@@](C)(OC)[C@@H](O)C(C)O2)C(C)[C@@H](OC2OC(C)CC(N(C)C)[C@H]2O)[C@@](C)(O)C[C@@H](C)CN(C)[C@H](C)[C@@H](O)[C@]1(C)O (some centres unmarked) [form F]	mgA/mL	79.90
CCC1OC(=O)C(C)C(O[C@H]2C[C@@](C)(OC)[C@@H](O)C(C)O2)C(C)[C@@H](OC2OC(C)CC(N(C)C)[C@H]2O)[C@@](C)(O)C[C@@H](C)CN(C)[C@H](C)[C@@H](O)[C@]1(C)O (some centres unmarked) [form J]	mgA/mL	106.51

---

Test: Equilibrium solubility of azithromycin forms in granulating liquids (HPLC-UV)
Conditions: 24 hours, water
# if value of solubility reaches 0.2 mgA/mL, tag fulfilled; if it stays below, tag not fulfilled

compound	discreteLabel
CCC1OC(=O)C(C)C(O[C@H]2C[C@@](C)(OC)[C@@H](O)C(C)O2)C(C)[C@@H](OC2OC(C)CC(N(C)C)[C@H]2O)[C@@](C)(O)C[C@@H](C)CN(C)[C@H](C)[C@@H](O)[C@]1(C)O (some centres unmarked) [form J]	not fulfilled
CCC1OC(=O)C(C)C(O[C@H]2C[C@@](C)(OC)[C@@H](O)C(C)O2)C(C)[C@@H](OC2OC(C)CC(N(C)C)[C@H]2O)[C@@](C)(O)C[C@@H](C)CN(C)[C@H](C)[C@@H](O)[C@]1(C)O (some centres unmarked) [form M]	fulfilled
CC[C@H]1OC(=O)[C@H](C)[C@@H](O[C@H]2C[C@@](C)(OC)[C@@H](O)[C@H](C)O2)[C@H](C)[C@@H](O[C@@H]2O[C@H](C)C[C@H](N(C)C)[C@H]2O)[C@](C)(O)C[C@@H](C)CN(C)[C@H](C)[C@@H](O)[C@]1(C)O [form A, reference compound]	not fulfilled
CCC1OC(=O)C(C)C(O[C@H]2C[C@@](C)(OC)[C@@H](O)C(C)O2)C(C)[C@@H](OC2OC(C)CC(N(C)C)[C@H]2O)[C@@](C)(O)C[C@@H](C)CN(C)[C@H](C)[C@@H](O)[C@]1(C)O (some centres unmarked) [form F]	not fulfilled

---

Experiment: Equilibrium solubility of azithromycin forms in granulating liquids (HPLC-UV)
Conditions: 24 hours, EtOH 67% in water v/v
solubility by entry:
property: solubility (mgA/mL)

compound	property	endpointUnit	reported
CC[C@H]1OC(=O)[C@H](C)[C@@H](O[C@H]2C[C@@](C)(OC)[C@@H](O)[C@H](C)O2)[C@H](C)[C@@H](O[C@@H]2O[C@H](C)C[C@H](N(C)C)[C@H]2O)[C@](C)(O)C[C@@H](C)CN(C)[C@H](C)[C@@H](O)[C@]1(C)O [form A, reference compound]	solubility	mgA/mL	27.48
CC[C@H]1OC(=O)[C@H](C)[C@@H](O[C@H]2C[C@@](C)(OC)[C@@H](O)[C@H](C)O2)[C@H](C)[C@@H](O[C@@H]2O[C@H](C)C[C@H](N(C)C)[C@H]2O)[C@](C)(O)C[C@@H](C)CN(C)[C@H](C)[C@@H](O)[C@]1(C)O [form N, azithromycin]	solubility	mgA/mL	27.33
CCC1OC(=O)C(C)C(O[C@H]2C[C@@](C)(OC)[C@@H](O)C(C)O2)C(C)[C@@H](OC2OC(C)CC(N(C)C)[C@H]2O)[C@@](C)(O)C[C@@H](C)CN(C)[C@H](C)[C@@H](O)[C@]1(C)O (some centres unmarked) [form F]	solubility	mgA/mL	27.86
CCC1OC(=O)C(C)C(O[C@H]2C[C@@](C)(OC)[C@@H](O)C(C)O2)C(C)[C@@H](OC2OC(C)CC(N(C)C)[C@H]2O)[C@@](C)(O)C[C@@H](C)CN(C)[C@H](C)[C@@H](O)[C@]1(C)O (some centres unmarked) [form J]	solubility	mgA/mL	27.15
CCC1OC(=O)C(C)C(O[C@H]2C[C@@](C)(OC)[C@@H](O)C(C)O2)C(C)[C@@H](OC2OC(C)CC(N(C)C)[C@H]2O)[C@@](C)(O)C[C@@H](C)CN(C)[C@H](C)[C@@H](O)[C@]1(C)O (some centres unmarked) [form M]	solubility	mgA/mL	25.86

meta.source: patent US20030190365A1
